Can you tell me RELATIVE POTENCY A/B for the items I'm about to list?
target_under_test: MAO-B (Rattus norvegicus)
Sequence (P19643 whole entry): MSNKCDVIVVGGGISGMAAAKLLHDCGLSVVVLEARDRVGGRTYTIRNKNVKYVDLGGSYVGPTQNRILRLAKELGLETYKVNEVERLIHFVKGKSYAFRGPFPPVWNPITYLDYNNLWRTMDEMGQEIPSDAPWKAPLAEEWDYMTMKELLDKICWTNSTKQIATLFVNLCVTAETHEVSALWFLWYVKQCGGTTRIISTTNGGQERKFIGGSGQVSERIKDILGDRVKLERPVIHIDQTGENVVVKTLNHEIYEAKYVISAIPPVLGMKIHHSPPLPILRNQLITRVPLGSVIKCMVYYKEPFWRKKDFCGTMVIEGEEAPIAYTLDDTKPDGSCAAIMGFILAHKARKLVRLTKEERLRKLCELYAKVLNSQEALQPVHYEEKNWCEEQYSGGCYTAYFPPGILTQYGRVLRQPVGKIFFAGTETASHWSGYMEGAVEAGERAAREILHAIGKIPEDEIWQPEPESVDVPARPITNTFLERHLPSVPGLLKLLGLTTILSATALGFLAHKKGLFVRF
assay_procedure: Rat brain MAO inhibition by propargylamines (Table IA), MAO-B
Type: biochemical
Parameters: in a rat brain preparation of MAO; from tissue; host or cells: rat brain preparation
conditions: ratio MAO-A / MAO-B for one epimer
Respond numerically, and do not add a unit to the figure.

## Task Need RELATIVE POTENCY A/B, item C#CCN(C)C1CCCc2ccccc21 (single isomer, unassigned) [2-MPAI +, N-Methyl-N-propargyl-1-aminotetralin]
## Result 8.8

## Task Need RELATIVE POTENCY A/B, item C#CCNC1CCCc2ccccc21 (stereo not shown) [1-PAT S, N-propargyl-1-aminotetralin]
## Result 76

## Task Need RELATIVE POTENCY A/B, item C#CCNC1CCCc2ccccc21 (stereo not shown) [1-PAT R, N-propargyl-1-aminotetralin]
## Result 10

## Task Need RELATIVE POTENCY A/B, item C#CCN(C)C1CCCc2ccccc21 (single isomer, unassigned) [2-MPAI -, N-Methyl-N-propargyl-1-aminotetralin]
## Result 0.5
